Molecular target: Grb2 SH2 (UniProt P62993)
Test: SH2 binding enrichment of the phosphorylated peptide, bacterial display (enrichment ratio); higher = better substrate or ligand; peptides without Tyr show the background
measure: SH2 binding enrichment

* LSFSEYASVQV [SIRPA_Y496_P491L] | 0.934
* GYRPVYSEDEQ [CHST6_Y362] | 0.921
* TRNRDYDDIDD [TTYH2_Y424] | 0.721

[a] CFTRKYTLPPG [HSPB1_Y142]
[b] LFEDHYLLGTS [ASS1_Y87_R86H_YF]
So which one has the bigger SH2 binding enrichment here, a or b ? Provide the label of your selected option as the answer. b
(b: 1.22, a: 0.683)

====

Target: EPHB2 (UniProt P29323)
Sequence (P29323 whole entry, looked up): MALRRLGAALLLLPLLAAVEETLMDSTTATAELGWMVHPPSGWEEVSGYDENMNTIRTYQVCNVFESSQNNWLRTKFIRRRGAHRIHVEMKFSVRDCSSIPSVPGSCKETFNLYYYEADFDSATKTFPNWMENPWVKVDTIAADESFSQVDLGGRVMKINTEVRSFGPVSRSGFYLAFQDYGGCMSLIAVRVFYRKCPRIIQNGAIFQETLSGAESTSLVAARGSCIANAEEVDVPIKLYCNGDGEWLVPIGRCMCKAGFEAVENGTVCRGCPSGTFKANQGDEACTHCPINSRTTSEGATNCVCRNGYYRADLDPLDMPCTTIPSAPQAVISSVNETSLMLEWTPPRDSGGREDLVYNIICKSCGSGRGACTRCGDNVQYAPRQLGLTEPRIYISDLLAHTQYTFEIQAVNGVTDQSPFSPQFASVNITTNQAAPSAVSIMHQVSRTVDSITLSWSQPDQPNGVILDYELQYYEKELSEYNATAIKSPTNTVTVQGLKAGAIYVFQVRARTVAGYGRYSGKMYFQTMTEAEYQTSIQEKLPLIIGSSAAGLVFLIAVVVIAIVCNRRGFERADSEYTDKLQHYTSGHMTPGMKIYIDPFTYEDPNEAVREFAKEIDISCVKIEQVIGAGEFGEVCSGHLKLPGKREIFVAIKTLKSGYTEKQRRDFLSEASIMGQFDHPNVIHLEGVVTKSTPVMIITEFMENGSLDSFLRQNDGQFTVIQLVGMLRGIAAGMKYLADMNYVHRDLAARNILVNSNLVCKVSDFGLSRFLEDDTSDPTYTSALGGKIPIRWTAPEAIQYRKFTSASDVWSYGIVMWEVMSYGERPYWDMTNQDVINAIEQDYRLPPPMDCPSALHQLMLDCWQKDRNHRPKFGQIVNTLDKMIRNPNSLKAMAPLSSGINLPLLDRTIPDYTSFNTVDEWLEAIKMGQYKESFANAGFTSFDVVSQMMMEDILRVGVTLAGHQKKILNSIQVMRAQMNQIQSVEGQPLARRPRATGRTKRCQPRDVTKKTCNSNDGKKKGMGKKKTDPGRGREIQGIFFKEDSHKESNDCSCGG
Assay: phosphorylation enrichment, bacterial display (enrichment ratio); higher = better substrate or ligand; peptides without Tyr show the background
measure: phosphorylation enrichment
Just the number, please, no unit after it.

Consider the following illustrative entries.
* SVMAEYGLFAA [VSX2_Y219_G223A_YF] | 0.578
* RETLTYAQAQG [BRD1_Y33_R38G] | 0.934
* VDESLYKTHPQ [HK1_Y417_G414E] | 0.706
* NNKKDYYDMYE [SLC26A3_Y526_K521N] | 1.52
* KWHREYNSKFV [RICTOR_Y835_YF] | 0.391

Then this sequence:
// returns reported phosphorylation enrichment for input NPQKSYFIRLF [WAS_Y83_YF] 0.501

====

Molecular target: Fes (UniProt P07332)
Sequence (P07332 whole entry, looked up): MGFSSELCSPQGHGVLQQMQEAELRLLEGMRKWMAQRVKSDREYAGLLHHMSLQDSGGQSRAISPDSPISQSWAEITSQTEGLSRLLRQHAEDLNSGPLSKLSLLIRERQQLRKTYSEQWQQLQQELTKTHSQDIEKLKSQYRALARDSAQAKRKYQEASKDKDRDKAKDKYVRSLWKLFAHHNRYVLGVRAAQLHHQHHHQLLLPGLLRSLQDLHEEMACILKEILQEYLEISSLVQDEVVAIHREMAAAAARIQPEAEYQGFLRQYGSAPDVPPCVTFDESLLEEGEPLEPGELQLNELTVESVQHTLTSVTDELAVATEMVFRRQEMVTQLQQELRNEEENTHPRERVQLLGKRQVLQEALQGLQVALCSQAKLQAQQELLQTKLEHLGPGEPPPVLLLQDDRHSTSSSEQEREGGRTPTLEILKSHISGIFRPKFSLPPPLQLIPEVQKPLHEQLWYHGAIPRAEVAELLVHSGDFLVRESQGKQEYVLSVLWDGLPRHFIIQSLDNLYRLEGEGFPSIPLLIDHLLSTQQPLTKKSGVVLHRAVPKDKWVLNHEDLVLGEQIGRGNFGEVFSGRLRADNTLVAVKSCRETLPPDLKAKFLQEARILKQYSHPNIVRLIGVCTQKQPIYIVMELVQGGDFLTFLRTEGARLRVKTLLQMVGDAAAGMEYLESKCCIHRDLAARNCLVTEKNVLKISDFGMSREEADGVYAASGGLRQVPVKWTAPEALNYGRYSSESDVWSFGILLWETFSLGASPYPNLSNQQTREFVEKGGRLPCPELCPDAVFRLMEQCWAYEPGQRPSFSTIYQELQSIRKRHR
Assay: phosphorylation enrichment, bacterial display (enrichment ratio); higher = better substrate or ligand; peptides without Tyr show the background
Below: a set of entries, each annotated with reported phosphorylation enrichment.
Answer as a number with no unit attached.

Please review the entries below; each comes with its answer.
- TEQDPSNNIVR [MMUT_Y364_Y364S]: 1
- VDESLYKTHPQ [HK1_Y417_G414E]: 0.989
- ANFTEYVATSW [CDKL5_Y171_R175S_YF]: 1.03
- NFATLHLKIYH [PDE6B_Y219_Y219H]: 1.41
- GESKDYALHAG [SVIL_Y185_V189A]: 0.566
- KIKLNYTLPQD [NRAP_Y523_N519I]: 0.88
- VQQVIYATGAL [MYH7_Y422]: 1
- KHCEDYVFSFN [DSC1_Y846_C848F_YF]: 1.21
- RPFFLYVAFHD [SGSH_Y174]: 1.58
- KGIQLYDTPFE [SHB_Y297_YF]: 0.911

Which phosphorylation enrichment value belongs to ALMGPYHGQVL [HADHA_Y343_L342P] ? 0.537

Return reported phosphorylation enrichment; argument: TTSQLYDAVPI [PDPK1_Y9] 1.41

Which value of phosphorylation enrichment has been reported for HNLDYYKQTTN [FGFR3_Y648_K650Q] in the records? 1.01

phosphorylation enrichment for PTTKTYFPHFG [HBA1_Y43_D48G] ? 0.645

Any idea what its phosphorylation enrichment is? The sequence is YSKTQYNQVPS [CXADR_Y318] 0.522

Can you share its phosphorylation enrichment? I mean this sequence: ISGGGYRARPA [FGB_Y71] 0.665

What phosphorylation enrichment value was documented for this sequence, MPAVTYTLAMR [MEGF10_Y895_P897L] ? 1.03

For the sequence DSSIRYLQEIH [FGG_Y135_Y140H] , what phosphorylation enrichment is on record? 0.667

Can you share its phosphorylation enrichment? I mean this sequence: AEEEIYGIFGA [SRCtide_2014] 1.31

Ref: the supplement of paper PMC10065799
